Molecular target: NK1 receptor (Homo sapiens, UniProt P25103)
Sequence (P25103 whole entry): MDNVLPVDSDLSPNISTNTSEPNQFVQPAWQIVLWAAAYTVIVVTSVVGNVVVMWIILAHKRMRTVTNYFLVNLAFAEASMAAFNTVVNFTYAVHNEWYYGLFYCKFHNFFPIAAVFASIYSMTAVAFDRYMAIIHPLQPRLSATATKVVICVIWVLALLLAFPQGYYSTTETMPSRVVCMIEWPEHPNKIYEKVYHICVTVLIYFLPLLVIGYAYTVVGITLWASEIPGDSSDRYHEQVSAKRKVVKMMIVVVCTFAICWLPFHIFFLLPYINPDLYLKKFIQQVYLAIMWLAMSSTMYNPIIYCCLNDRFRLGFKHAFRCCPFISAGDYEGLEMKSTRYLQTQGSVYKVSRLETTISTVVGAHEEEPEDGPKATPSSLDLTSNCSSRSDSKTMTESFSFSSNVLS
Assay: neurokinin receptor binding assay, NK1 (Ki)
Conditions: read-out: Ki (NK1)
pKi: −log10 of the molar value.
Quick reference: pKi of the listed items.
Measured Quantity: pKi

INSERT INTO assay_data (compound, observed_value) VALUES
  ('CON=C(CN(C)C(=O)c1cc(Cl)cc(Cl)c1)C(CCN1CCC(N2CCCC(CC(=O)N3CCC(OC)CC3)C2=O)CC1)c1ccc(Cl)c(Cl)c1 (stereo not drawn)', 9.05),
  ('CNC(=O)CC1CCCN(C2CCN(CCC(C(CN(C)C(=O)c3cc(Cl)cc(Cl)c3)=NOCC(N)=NOC)c3ccc(Cl)c(Cl)c3)CC2)C1=O (stereo not drawn) [Example 15M]', 9.70),
  ('CNC(=O)CC1CCCN(C2CCN(CCC(C(CN(C)C(=O)c3cc(Cl)cc(Cl)c3)=NOCC(=O)Nc3nncs3)c3ccc(Cl)c(Cl)c3)CC2)C1=O (stereo not drawn) [Example 15G]', 9.05),
  ('Cc1cc(C)cc(C(=O)N(C)CC(=NOCC(N)=NO)C(CCN2CCC(N3CCCC(CC(=O)N(C)C)C3=O)CC2)c2ccc(Cl)c(Cl)c2)c1 (stereo not drawn) [Example 19C]', 9.70),
  ('CON=C(CN(C)C(=O)c1cc(Cl)cc(Cl)c1)[C@H](CC[N+]1([O-])CCC(N2CCCCC2=O)CC1)c1ccc(Cl)c(Cl)c1 (stereo partly drawn) [Example 13G]', 8.82),
  ('CON=C(N)CON=C(CN(C)C(=O)c1cc(Cl)cc(Cl)c1)C(CCN1CCC(N2CCCC(CC(=O)N(C)C)C2=O)CC1)c1ccc(Cl)c(Cl)c1 (stereo not drawn) [Example 14E]', 9.70);

* * *

Biological target: NK1 receptor (Homo sapiens)
Experiment: neurokinin receptor binding assay, NK1 (Ki)
Conditions: read-out: Ki (NK1)
Source text: The in vitro and in vivo activity of the compounds of formula I can be determined by various procedures known in the art, such as a test for their ability to inhibit the activity of the NK1 agonist Substance P, an isolated hamster trachea NK2 assay, a test of the effect of NK1 antagonists on Substance P-induced airway microvascular leakage, measurement of NK2 activity in vivo in guinea pigs, measurement of bronchoconstriction due to NKA, and neurokinin receptor binding assay(s). […]
As shown below, each of these molecules has a reported Ki value.
Measured Quantity: Ki (nM)

INSERT INTO results (molecule, measure_unit, observed_value) VALUES
  ('CON=C(CN(C)C(=O)c1cc(Cl)cc(Cl)c1)[C@H](CCN1CCC(N2CCC[C@H](CC(=O)O)C2=O)CC1)c1ccc(Cl)c(Cl)c1 [Example 13E]', 'nM', 0.4),
  ('CON=C(CNC(=O)c1cc(Cl)cc(Cl)c1)C(CCN1CCC(N2CCC[C@H](CC(N)=O)C2=O)CC1)c1ccc(Cl)c(Cl)c1 (stereo partly drawn) [Example 29C]', 'nM', 2.6),
  ('CON=C(CN(C)C(=O)c1cc(Cl)cc(Cl)c1)[C@H](CCN1CCC(N2CCCCC2=O)CC1)c1ccc(Cl)c(Cl)c1 [Example 13D]', 'nM', 1.1);

* * *

Molecular target: NK2 receptor (Homo sapiens)
Sequence (P21452 whole entry): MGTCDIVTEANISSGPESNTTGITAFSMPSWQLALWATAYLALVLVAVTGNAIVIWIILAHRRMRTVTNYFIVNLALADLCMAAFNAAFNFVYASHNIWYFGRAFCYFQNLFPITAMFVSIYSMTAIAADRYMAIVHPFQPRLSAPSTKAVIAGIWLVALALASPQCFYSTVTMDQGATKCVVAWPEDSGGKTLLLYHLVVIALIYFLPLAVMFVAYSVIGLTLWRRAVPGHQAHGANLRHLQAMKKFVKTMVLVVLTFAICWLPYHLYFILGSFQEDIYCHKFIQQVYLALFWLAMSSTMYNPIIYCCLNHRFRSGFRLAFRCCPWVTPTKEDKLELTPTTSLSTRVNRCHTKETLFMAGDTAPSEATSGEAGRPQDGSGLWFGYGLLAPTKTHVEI
Assay: neurokinin receptor binding assay, NK2 (Ki)
Details: compound of Example 11, amide disclosed in U.S. Pat. No. 5,696,267; read-out: Ki for the NK2 receptor (unit inferred)
Measured Quantity: Ki (nM)

INSERT INTO assay_data (molecule, observed_value) VALUES
  ('CO/N=C(\CN(C)C(=O)c1cc(C(F)(F)F)cc(C(F)(F)F)c1)C(CCN1CCC(O)(c2ccccc2)CC1)c1ccc(Cl)c(Cl)c1 (stereo not shown)', 9.2);
